SYSTEM: human ether-à-go-go-related gene (hERG) potassium channel (human)
EXPERIMENT: primary screen, population patch clamp on CHO cells stably expressing hERG; higher = less effect of the substance
Description: Briefly, Chinese hamster ovary (CHO) cells stably expressing the hERG channel were dislodged from tissue culture flasks and dispensed into PPC plates. […] During the recording, background leak currents were estimated by a 100 ms step to -80 mV from an initial holding potential of -70 mV and subtracted from the subsequent current measurement. The campaign was conducted in two phases using slight differences in recording protocol. […]
Screen size: about 310,000 compounds; about 14,000 (4.5%) showed an effect of 50% or more. Effects have a minus sign here. The list comes from a sample in which strong results are over-represented; it also holds close analogues and randomly drawn compounds.
MEASURE: hERG current change (%, negative = inhibition) at 10uM (%)
Please state the figure in %; there is no need to write the unit.

Return hERG current change (%, negative = inhibition) at 10uM (reported value) for this compound: `CCn1c(SCC#N)nc2c(c1=O)C1(CCCC1)Cc1ccccc1-2` 2.38

Answer with reported hERG current change (%, negative = inhibition) at 10uM of `O=C(CN1CCOCC1)Nc1ccc([N+](=O)[O-])cc1Br` -43.7

Give recorded hERG current change (%, negative = inhibition) at 10uM. `COc1ccc(Nc2ncccc2C(=O)Nc2ccccc2)cc1` -9.63

State its hERG current change (%, negative = inhibition) at 10uM for this compound: `O=C(CN1CCN(c2ccccc2O)CC1)Nc1ccc([N+](=O)[O-])cc1Br` -6.3

Hello, please tell me recorded hERG current change (%, negative = inhibition) at 10uM for this one: Cc1cccc(C)c1OCC(O)Cn1c2ccccc2c2ccccc21 (stereo not drawn) 6.83

Tell us which hERG current change (%, negative = inhibition) at 10uM value is on record for `Cc1cc(C)nc(N2CCC(C(=O)NCc3ccco3)CC2)n1` -1.73

Look up hERG current change (%, negative = inhibition) at 10uM of `Cc1ccc(C)c(NC(=S)N2CCCCCC2)c1` and report it. 0.578

Report hERG current change (%, negative = inhibition) at 10uM for Cl.OC(COc1c(F)cc(Br)cc1F)CN1CCc2ccccc2C1 (stereo not drawn) -72.2

----------
SYSTEM: human ether-à-go-go-related gene (hERG) potassium channel (human, UniProt Q12809);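 note: peak tail current of the secondary pulse compared with the same well before compound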
Sequence (Q12809 whole entry, looked up): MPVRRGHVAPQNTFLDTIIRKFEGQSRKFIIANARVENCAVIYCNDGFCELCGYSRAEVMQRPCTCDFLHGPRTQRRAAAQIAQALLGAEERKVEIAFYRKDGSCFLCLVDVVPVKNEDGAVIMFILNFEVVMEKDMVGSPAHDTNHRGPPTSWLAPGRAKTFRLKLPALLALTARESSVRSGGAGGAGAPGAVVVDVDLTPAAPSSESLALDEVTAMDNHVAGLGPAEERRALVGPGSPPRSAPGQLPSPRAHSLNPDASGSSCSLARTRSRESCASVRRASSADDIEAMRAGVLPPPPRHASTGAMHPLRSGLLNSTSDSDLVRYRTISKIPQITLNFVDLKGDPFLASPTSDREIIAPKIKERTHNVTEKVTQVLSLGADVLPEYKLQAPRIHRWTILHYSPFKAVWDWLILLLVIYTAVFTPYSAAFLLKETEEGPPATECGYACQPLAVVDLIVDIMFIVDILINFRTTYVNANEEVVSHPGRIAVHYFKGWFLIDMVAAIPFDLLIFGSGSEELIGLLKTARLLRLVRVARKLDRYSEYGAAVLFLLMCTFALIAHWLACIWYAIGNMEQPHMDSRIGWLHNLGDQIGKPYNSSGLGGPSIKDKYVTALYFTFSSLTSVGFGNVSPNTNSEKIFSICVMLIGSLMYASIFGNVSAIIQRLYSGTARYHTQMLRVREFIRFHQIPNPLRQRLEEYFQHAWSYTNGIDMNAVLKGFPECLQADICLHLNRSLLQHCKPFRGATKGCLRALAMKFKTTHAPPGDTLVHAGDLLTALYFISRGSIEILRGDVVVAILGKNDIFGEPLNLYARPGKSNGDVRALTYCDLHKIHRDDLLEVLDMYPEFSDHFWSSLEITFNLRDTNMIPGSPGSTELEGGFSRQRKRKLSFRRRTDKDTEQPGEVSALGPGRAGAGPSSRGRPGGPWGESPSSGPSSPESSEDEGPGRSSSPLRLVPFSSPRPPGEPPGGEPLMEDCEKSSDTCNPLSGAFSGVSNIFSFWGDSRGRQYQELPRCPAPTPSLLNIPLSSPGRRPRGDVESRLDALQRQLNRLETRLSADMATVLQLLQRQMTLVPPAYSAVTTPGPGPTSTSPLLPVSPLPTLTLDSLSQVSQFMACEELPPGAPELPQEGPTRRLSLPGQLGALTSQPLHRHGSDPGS
EXPERIMENT: primary screen, population patch clamp on CHO cells stably expressing hERG; higher = less effect of the substance
About 14,000 (4.5%) of roughly 310,000 compounds showed an effect of 50% or more. The effect is printed as a negative number. The full list was thinned out, with strong results kept by preference.
MEASURE: hERG current change (%, negative = inhibition) at 10uM (%)
The reply should contain only the number, in %.

// solved cases for hERG current change (%, negative = inhibition) at 10uM follow
| COMPOUND | MEASURED VALUE |
| --- | --- |
| COc1ccc(NC(=O)/C(C#N)=C\c2cc(C)n(-c3ccc4c(c3)OCO4)c2C)cc1 | 3.77 |
| COCCN(Cc1ccccc1)C(=S)Nc1ccc(OC(F)F)cc1 | -69.8 |
| CCCN(Cc1ccccc1)C(=S)Nc1ccc(OC(F)F)cc1 | -41 |
| CCc1nc(N2CCN(C(=O)c3ccco3)CC2)c(C#N)c2c1COC(C)(C)C2 | -52.1 |
| CC(=O)c1cccc(NC(=O)CN(C)Cc2ccc(OC(F)F)cc2)c1 | -55 |
| CCc1nc(N2CCN(C(=O)c3ccccc3)CC2)c(C#N)c2c1COC(C)(C)C2 | -46.5 |
| Cc1nc(N2CCN(C(=O)c3ccc(Cl)cc3)CC2)c(C#N)c2c1COC(C)(C)C2 | -60.8 |
| CCN(CC)C(=S)Nc1ccc(OC(F)F)cc1 | -28.6 |
| O=C(O)C(=O)O.Oc1ccccc1CN1CCC(C(O)(c2ccccc2)c2ccccc2)CC1 | -68.5 |
| Cc1ccc(S(=O)(=O)N2CCN(C)CC2)cc1C(=O)NC1CCCCC1 | -19.5 |

Return value of hERG current change (%, negative = inhibition) at 10uM for input O=C(CSc1nnc(NC(=O)C2CC(=O)N(c3ccccc3)C2)s1)NCc1ccco1 (centres unmarked) , no commentary. 16.9

Please give measured hERG current change (%, negative = inhibition) at 10uM of the following entry: CCCCN(C(=O)c1ccco1)C1CCS(=O)(=O)C1 (centres unmarked) 0.36

For `Nn1c(Cc2cccc3ccccc23)nnc1SCC(=O)N1CC(=O)Nc2ccccc21` , write its hERG current change (%, negative = inhibition) at 10uM. 7.01

Kindly indicate its recorded hERG current change (%, negative = inhibition) at 10uM. Item: `CCc1nc(N2CCN(C(C)=O)CC2)c(C#N)c2c1COC(C)(C)C2` -0.704

Provide only the value of recorded hERG current change (%, negative = inhibition) at 10uM for `Cc1nc(N2CCN(Cc3ccccc3)CC2)c(C#N)c2c1COC(C)(C)C2` -5.21

Give a short answer stating reported hERG current change (%, negative = inhibition) at 10uM for Cc1nn(CC(=O)NCC(C)c2ccccc2)c(=O)c2cc3occc3n12 (centres unmarked) . -3.5

Identify measured hERG current change (%, negative = inhibition) at 10uM associated with `CC(C)c1nc(N2CCN(C(=O)c3ccccc3)CC2)c(C#N)c2c1COC(C)(C)C2` -40.8

Return reported hERG current change (%, negative = inhibition) at 10uM. Input compound: `O=C(CN1CCC(C(O)(c2ccccc2)c2ccccc2)CC1)Nc1ccccc1` -42.1

Annotate the compound `O=C(O)C(=O)O.Oc1ccccc1CN1CCN(C(O)(c2ccccc2)c2ccccc2)CC1` with its measured hERG current change (%, negative = inhibition) at 10uM. -46

Answer with the recorded hERG current change (%, negative = inhibition) at 10uM for the compound listed here: `COc1ccc(/C=C/C2=NC(=C\N(C)C)/C(=O)O2)cc1` -37.6

----------
Reported hERG current change (%, negative = inhibition) at 10uM values for a set of compounds
SYSTEM: human ether-à-go-go-related gene (hERG) potassium channel (human);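 note: peak tail current of the secondary pulse compared with the same well before compound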
EXPERIMENT: primary screen, population patch clamp on CHO cells stably expressing hERG; higher = less effect of the substance
In all, about 310,000 compounds went through this assay and about 14,000 (4.5%) showed an effect of 50% or more. Effects have a minus sign here. Many of the other results were omitted from the sample, so strong results are more common in it than they were.
Express your answer in %, writing the number without its unit.

| SMILES DATA | MEASURED VALUE |
| --- | --- |
| O=C(CCS(=O)(=O)c1cccc2nonc12)NCCc1ccccc1Cl | -7.38 |
| CC(C)CC(=O)Nc1ccccc1-c1nnn(CC(=O)N2CCc3ccccc3C2)n1 | -37.3 |
| CCO[C@H]1OC(C(=O)N2CCOCC2)=C[C@@H](C2CC2)[C@@H]1CCCO | 19.9 |
| COc1ccc(NN=Nc2ccc([N+](=O)[O-])cc2)cc1 | 19.1 |

Identify the reported hERG current change (%, negative = inhibition) at 10uM for the following entry. `CC(=O)Nc1nc(-c2ccc(Cl)cc2)nc(C)c1C(C)=O` -19.8

----------
SYSTEM: human ether-à-go-go-related gene (hERG) potassium channel (human);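 note: peak tail current of the secondary pulse compared with the same well before compound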
EXPERIMENT: primary screen, population patch clamp on CHO cells stably expressing hERG; higher = less effect of the substance
Screen size: about 310,000 compounds; about 14,000 (4.5%) showed an effect of 50% or more. The effect is printed as a negative number. This is one part of a sample in which strong results are shown more often than they occur.
Label Y for high-side hERG current change (%, negative = inhibition) at 10uM (at or above -30%) and N for low-side hERG current change (%, negative = inhibition) at 10uM (below it).

Can `CC(=O)c1ccc(OCc2cc(C(=O)NC3CCCCC3)no2)cc1` be said to have hERG current change (%, negative = inhibition) at 10uM at or above -30%? Y

# check: hERG current change (%, negative = inhibition) at 10uM of O=C(NC1CCc2ccccc21)c1cc(COc2ccc(F)cc2F)on1 (centres unmarked) is greater than or equal to -30% Y

----------
SYSTEM: human ether-à-go-go-related gene (hERG) potassium channel (human, UniProt Q12809);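 note: peak tail current of the secondary pulse compared with the same well before compound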
EXPERIMENT: primary screen, population patch clamp on CHO cells stably expressing hERG; higher = less effect of the substance
Among all 310,000 compounds or so, about 14,000 (4.5%) showed an effect of 50% or more. Effects have a minus sign here. The full list was thinned out, with strong results kept by preference.
# hERG current change (%, negative = inhibition) at 10uM values compiled below
The response must be a number in % with no trailing unit.

Worked examples, 3 compounds total:
| COMPOUND | SYSTEM | MEASURED VALUE |
| --- | --- | --- |
| CC1CC(C)CN(Cc2nc(N)nc(Nc3ccc4ccccc4c3)n2)C1 (centres unmarked) | human ether-à-go-go-related gene (hERG) potassium channel (human, UniProt Q12809) | -79 |
| Cc1ccc(N(C)S(=O)(=O)c2ccc3[nH]cc(C(=O)NCCCN4CCOCC4)c(=O)c3c2)cc1C | human ether-à-go-go-related gene (hERG) potassium channel (human, UniProt Q12809) | -16.5 |
| CN(CC(=O)N1CCCCCC1)S(=O)(=O)c1ccc(Br)s1 | human ether-à-go-go-related gene (hERG) potassium channel (human, UniProt Q12809) | -9.92 |

Determine from records and report hERG current change (%, negative = inhibition) at 10uM for `O.Oc1cc(O)c2c(c1)O[C@H](c1ccc(O)c(O)c1)[C@@H](O)C2` 17.4

Determine from records and report hERG current change (%, negative = inhibition) at 10uM for `CCOc1ccc2oc(C(=O)N3CCN(c4ccccn4)CC3)c(C)c2c1` -34.3

Indicate the recorded hERG current change (%, negative = inhibition) at 10uM value for this compound: `Cc1c(C)c2ccc(OCC(=O)NC3CCN(Cc4ccccc4)CC3)c(C)c2oc1=O` -42.7

Return hERG current change (%, negative = inhibition) at 10uM (reported value) for this compound: `O=C(COc1ccccc1)NC1CCN(Cc2ccccc2)CC1` -50.4

// Input: `COc1ccc(CNC(=O)c2cccc(NC(=O)c3ccccc3)c2)cc1` . Output its hERG current change (%, negative = inhibition) at 10uM only. -71.5

Tell me its hERG current change (%, negative = inhibition) at 10uM given `Cc1cc(C)cc(C(=O)NCC(=O)OCC(=O)c2c(N)n(C)c(=O)n(C)c2=O)c1` as the entry. 17.4

Respond only with hERG current change (%, negative = inhibition) at 10uM recorded for `CCOC(=O)C1(Cc2cccc(OC)c2)CCN(Cc2cccn2-c2nccs2)CC1` -72

Dear colleague, please send me the reported hERG current change (%, negative = inhibition) at 10uM for `CCOC(=O)C1(Cc2cccc(OC)c2)CCN(Cc2cccn2-c2ccccn2)CC1` when you can. -74.8

Given `C=CCN1C(=O)/C(=C/c2ccc(Br)s2)C(=O)NC1=S` , respond with its hERG current change (%, negative = inhibition) at 10uM. 6.73
